Tested on: 280 human cancer cell lines
ASSAY_EXPLANATION: OncoPanel cell proliferation assay (10-day)
Format: cell-based
ASSAY_CONTEXT: Homo sapiens, COLO-829, COLO 829, Skin (Melanoma); read-out: Cell Count IC50
OBSERVED_PROPERTY: IC50 (µM)
Response body: numeric value in µM, unit text excluded.

Examples with their reported IC50 follow.
- COMPOUND: "CC(C)=CCC[C@H](C)[C@@H]1CC[C@@H](C)c2c1cc(C)c(O)c2O [Compound 4, 7,8-dihydroxyserrulat-14-ene]"
  TESTED_SYSTEM: "280 human cancer cell lines"
  OBSERVED_PROPERTY: "IC50"
  REPORTED: 3.71
- COMPOUND: "CC(C)=CCC[C@@H]1C(O)Oc2c(C)cc(O)c3c2[C@H]1CC[C@H]3C (stereo partly drawn)"
  TESTED_SYSTEM: "280 human cancer cell lines"
  OBSERVED_PROPERTY: "IC50"
  REPORTED: 5.35

Let us examine a further case.
Query :: So what's the measured IC50 for this one? CC(C)=CCC[C@H](CO)[C@@H]1CC[C@@H](C)c2c1cc(C)c(O)c2O [Compound 1, 7,8,18-trihydroxyserrulat-14-ene]
Result :: 0.68
